- EXPERIMENTAL DETAILS: Pharmacokinetics assay in male CD-1 mice (plasma, LC-MS/MS, non-compartmental analysis)
- Type: in vivo
- RUN CONDITIONS: male, CD-1, mouse, plasma, iv, 1 mg/kg, IV 1.00 mg/kg, individual mice M7-M9
PROPERTY MEASURED: clearance (mL/min/kg)

compound="COc1cc(OC)cc(N(CCNC(C)C)c2ccc3nnc(-c4cnn(C)c4)cc3c2)c1 [Example 1]" value_measured=73

* * *

- EXPERIMENTAL DETAILS: Pharmacokinetics assay in male CD-1 mice (plasma, LC-MS/MS, non-compartmental analysis)
- Format: in vivo
- RUN CONDITIONS: male, CD-1, plasma; PO 10.0 mg/kg vs IV 1.00 mg/kg, mouse, calculated from AUC
PROPERTY MEASURED: bioavailability (%)

compound_structure_string=COc1cc(OC)cc(N(CCNC(C)C)c2ccc3nnc(-c4cnn(C)c4)cc3c2)c1 unit_of_measure=% value_measured=13.8
